Each recorded value in this set is attributed to PubChem BioAssay AID624305.

Method: qHTS assay for re-activators of p53 using a Luc reporter: Hit Validation; further: nearly all actives have a fitted effect of over 75% in size
Conditions: p53-responsive luciferase reporter cells, luminescence, H1299 line expressing heat-sensitive Ala138Val p53; series mostly up to 46.1 µM
Inconclusive results are not listed. Active and inactive are the calls of the source. The call rests on the fitted dose curve; in most records, active means well fitted activation curve with a large enough effect; inconclusive means small, poorly fitted or top-dose-only effect; inactive means no such curve, though single readings can be large or run the other way.
Possible outcomes: YES for active, NO for inactive

Input Smiles: O=C(Nc1nc(-c2cccs2)cs1)c1ccc([N+](=O)[O-])o1
Classification: YES

Input Smiles: CC(=O)NC1=C(Nc2ccc(N(C)C)cc2)C(=O)c2ccccc2C1=O
Classification: YES

Input Smiles: COc1ccc(-n2cnc3c(cnn3CCC#N)c2=N)cc1
Classification: NO

Input Smiles: O=C(N/N=C/c1cn(-c2ccccc2)nc1-c1cc2ccccc2o1)c1ccccc1Br
Classification: YES

Input Smiles: c1ccc(-c2nnc(-c3ccccn3)nc2NC2CCCCC2)cc1
Classification: YES

Input Smiles: Cc1cc(C)cc(OCC(=O)NNC(=O)c2ccccn2)c1
Classification: NO

Input Smiles: Cc1ccc2c(c1)sc1nc(=O)n(-c3cccc(Cl)c3)c(=O)n12
Classification: YES

Input Smiles: CC(C)C(=O)OCC(=O)Nc1ccc(N=Nc2ccccc2)cc1
Classification: YES

Input Smiles: CS(=O)(=O)c1ccc2nc(NC(=O)c3ccco3)sc2c1
Classification: YES

Input Smiles: CC(C)CCn1cnc2c(sc3nc4c(cc32)CSC(C)(C)C4)c1=O
Classification: YES

Input Smiles: COc1cccc(-c2nc3cc(C)ccc3o2)c1
Classification: YES
